# target.desc: phosphatase ABI1 via the co-regulator RCAR11/PYR1 (Arabidopsis thaliana, UniProt O49686+P49597)
# Sequence (O49686 1-191): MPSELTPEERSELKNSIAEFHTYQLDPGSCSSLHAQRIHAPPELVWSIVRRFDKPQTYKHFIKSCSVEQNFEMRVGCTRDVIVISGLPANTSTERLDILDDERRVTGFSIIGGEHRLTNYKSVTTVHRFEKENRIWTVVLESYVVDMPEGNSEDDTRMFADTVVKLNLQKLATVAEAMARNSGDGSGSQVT
# Sequence (P49597 1-434): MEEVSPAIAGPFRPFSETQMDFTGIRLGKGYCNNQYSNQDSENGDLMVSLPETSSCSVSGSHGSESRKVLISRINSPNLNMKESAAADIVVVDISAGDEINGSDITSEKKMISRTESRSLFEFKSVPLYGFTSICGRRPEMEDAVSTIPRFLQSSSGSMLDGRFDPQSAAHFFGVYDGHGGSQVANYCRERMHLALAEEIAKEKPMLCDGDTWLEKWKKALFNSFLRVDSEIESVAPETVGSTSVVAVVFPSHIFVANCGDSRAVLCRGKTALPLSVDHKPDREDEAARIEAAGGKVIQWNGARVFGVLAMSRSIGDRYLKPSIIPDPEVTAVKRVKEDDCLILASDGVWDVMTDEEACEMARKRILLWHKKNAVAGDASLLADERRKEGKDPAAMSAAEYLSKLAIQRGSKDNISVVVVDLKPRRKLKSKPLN
# test.method.notes: In vitro assay: inhibition of ABI1 dephosphorylation of 4-methylumbelliferyl phosphate (MUP), fluorescence
# Format: biochemical
# measurement.context: concentration of 5 mM of the substance in DMSO and water, 35° C., 20 minutes

[
  {
    "compound": "CCc1ccc(CS(=O)(=O)Nc2ccc3c(c2)CCC(=O)N3C2(C3CC3)CC2)cc1 [A3-325]",
    "ABI1 inhibition": "++++ (inhibition ≧90%)"
  },
  {
    "compound": "CC1CC(N2C(=O)CCc3cc(NS(=O)(=O)Cc4cccc(C#N)c4)ccc32)C1 (centres unmarked) [A26-182]",
    "ABI1 inhibition": "++++ (inhibition ≧90%)"
  },
  {
    "compound": "CC1(N2C(=O)CCc3cc(NS(=O)(=O)Cc4ccc(Cl)cc4)ccc32)CC1 [A1-165]",
    "ABI1 inhibition": "++++ (inhibition ≧90%)"
  }
]

----------
# Tested on: Triticum aestivum
# test.method.notes: Drought stress test on potted crop plants, spray application, visual scoring against stressed control plants
# Type: in vivo
# Set-up: key: 0: no positive effect; +: slight positive effect; ++: clear positive effect; +++: strong positive effect
# measurement.context: dosage 250 g/ha, mean of at least three repeats
quantity: Effect (TRZAS)

Examples with answers:
[
  {
    "compound": "N#Cc1ccc(S(=O)(=O)Nc2ccc3c(c2)CCC(=O)N3C2CC(F)(F)C2)cc1",
    "Effect (TRZAS)": "++"
  },
  {
    "compound": "O=C1CCc2cc(NS(=O)(=O)Cc3ccc(F)cc3)ccc2N1C1(C2CC2)CC1",
    "Effect (TRZAS)": "+"
  },
  {
    "compound": "O=C1CCc2cc(NS(=O)(=O)Cc3ccc(Cl)cc3)ccc2N1C1(C2CC2)CC1",
    "Effect (TRZAS)": "+"
  },
  {
    "compound": "CC1(N2C(=O)CCc3cc(NS(=O)(=O)Cc4ccc(C#N)cc4)ccc32)CC1",
    "Effect (TRZAS)": "+"
  },
  {
    "compound": "O=C1CCc2cc(NS(=O)(=O)Cc3ccc(Cl)cc3)ccc2N1C12CC(C1)C2",
    "Effect (TRZAS)": "++"
  },
  {
    "compound": "O=C1CCc2cc(NS(=O)(=O)Cc3ccc(Cl)cc3)ccc2N1C1CC1C(F)(F)F (stereo not drawn)",
    "Effect (TRZAS)": "++"
  }
]

// batch mode: one Effect (TRZAS) value per listed entry
1. CC1CCC1N1C(=O)CCc2cc(NS(=O)(=O)c3ccc(C#N)cc3)ccc21 (stereo not drawn)
2. CC1(N2C(=O)CCc3cc(NS(=O)(=O)Cc4ccc(Cl)cc4)ccc32)CC1
3. N#Cc1ccc(S(=O)(=O)Nc2ccc3c(c2)CCC(=O)N3C23CC(C2)C3)cc1

Output:
1. +
2. +
3. +
